# Tested on: Mus musculus
# EXPERIMENT SUMMARY: Neurotoxicity in Swiss albino mouse assessed as effect on motor coordination at 100 mg/kg, ip by rotarod test
# Format: toxicity, organism-based
# Set-up: dose 100 mg/kg, route intraperitoneal
# TEST SETTINGS: in vivo
MEASUREMENT NAME: Activity

Please review the entries below; each comes with its answer.
Nn1c(CCc2ccc(O)cc2)nnc1SCC(=O)N1N=C(c2cccs2)CC1c1ccc(Cl)cc1 (stereo unspecified): Non-toxic
CN(C)c1ccc(C2CC(c3cccs3)=NN2C(=O)CSc2nnc(CCc3ccc(O)cc3)n2N)cc1 (stereo unspecified): Non-toxic
Nn1c(CCc2ccc(O)cc2)nnc1SCC(=O)N1N=C(c2cccs2)CC1c1ccc2c(c1)OCO2 (stereo unspecified): Non-toxic
Cc1ccc(C2CC(c3cccs3)=NN2C(=O)CSc2nnc(CCc3ccc(O)cc3)n2N)cc1 (stereo unspecified): Non-toxic
Nn1c(CCc2ccc(O)cc2)nnc1SCC(=O)N1N=C(c2cccs2)CC1c1ccc(F)cc1 (stereo unspecified): Non-toxic

Next item in the queue.
Ask | Quick one: Activity of Nn1c(CCc2ccc(O)cc2)nnc1SCC(=O)N1N=C(c2cccs2)CC1c1ccccc1 (stereo unspecified) ?
Reply | Non-toxic

###

# System: Mus musculus
# EXPERIMENT SUMMARY: Antidepressant-like activity in Swiss albino mouse assessed as effect on swimming time at 100 mg/kg, ip after 24 hrs measured for 5 mins by modified forced swimming test (reference value: 95 +/- 9.7 sec)
# Type: functional
# TEST SETTINGS: route intraperitoneal
Would you mind telling me the reported Time of each entry?
Just so you know, I need the unit written after the number.

Please review the entries below; each comes with its answer.
Cc1ccc(C2CC(c3cccs3)=NN2C(=O)CSc2nnc(CCc3ccc(O)cc3)n2N)cc1 (stereo unspecified): 147.8 s
Nn1c(CCc2ccc(O)cc2)nnc1SCC(=O)N1N=C(c2cccs2)CC1c1ccc(Cl)cc1 (stereo unspecified): 193.7 s
Nn1c(CCc2ccc(O)cc2)nnc1SCC(=O)N1N=C(c2cccs2)CC1c1ccccc1 (stereo unspecified): 191.8 s
Nn1c(CCc2ccc(O)cc2)nnc1SCC(=O)N1N=C(c2cccs2)CC1c1ccc2c(c1)OCO2 (stereo unspecified): 144.7 s
CN(C)c1ccc(C2CC(c3cccs3)=NN2C(=O)CSc2nnc(CCc3ccc(O)cc3)n2N)cc1 (stereo unspecified): 140 s

Next item in the queue.
Ask | Quick one: Time of Nn1c(CCc2ccc(O)cc2)nnc1SCC(=O)N1N=C(c2cccs2)CC1c1ccc(F)cc1 (stereo unspecified) ?
Reply | 153.3 s

The reported measurements were obtained from ChEMBL document CHEMBL1240441.
